Attribute: IC50
- System: NCI-H1838
- Test summary: Proliferation inhibition, non-small cell lung cancer cell line NCI-H1838
- Assay type: cell-based
- Settings: Homo sapiens, NCI-H1838, 72 h
Please give a number only; it is taken to be in nM.

molecule="CCN1CCN(Cc2ccc(Nc3ncc(F)c(-c4cc(F)c5nc(C)n(C(C)C)c5c4)n3)nc2)CC1 [Abemaciclib, reference compound]" test_readout=IC50 observed_value=90.2

Req: Look up and report measured IC50 for this entry: CC1=Nc2c(F)cc(-c3nc(Nc4ccc(C5CCN(C)CC5)cn4)ncc3F)cc2C12CCCC2.O=C(O)/C=C/C(=O)O [Compound A]
Resp: 47.9

Just for reference, patent US20250332167A1 is where these values come from.
